- Test summary: Antioxidant activity assessed as trolox equivalent of AAPH radical scavenging activity at 10 uM measured every min for 90 mins by ORAC-FL assay
- Format: functional
Readout type: Activity (equiv)
Field: numeric (equiv). Do not append units.

# count of solved cases: 4
Cc1ccc(N2CCN(CCC(=O)Nc3ccc4c(c3)oc(=O)n4C)CC2)cc1    4.03
Cn1c(=O)oc2cc(NC(=O)CCN3CCN(Cc4ccc(C(F)(F)F)cc4)CC3)ccc21    3.96
Cn1c(=O)sc2cc(NC(=O)CCN3CCN(c4ccc(F)cc4)CC3)ccc21    4.03
Cn1c(=O)sc2cc(NC(=O)CCN3CCN(c4ccc(C(F)(F)F)cc4)CC3)ccc21    4.1

Lab note: `COc1ccc(N2CCN(CCC(=O)Nc3ccc4c(c3)sc(=O)n4C)CC2)cc1` gave Activity of 4.55

Activity recorded for this compound, `Cn1c(=O)oc2cc(NC(=O)CCN3CCN(c4ccccc4)CC3)ccc21` , is 4.02

----------
- Measurement target: Acetylcholinesterase (Electrophorus electricus)
- Sequence (O42275 whole entry): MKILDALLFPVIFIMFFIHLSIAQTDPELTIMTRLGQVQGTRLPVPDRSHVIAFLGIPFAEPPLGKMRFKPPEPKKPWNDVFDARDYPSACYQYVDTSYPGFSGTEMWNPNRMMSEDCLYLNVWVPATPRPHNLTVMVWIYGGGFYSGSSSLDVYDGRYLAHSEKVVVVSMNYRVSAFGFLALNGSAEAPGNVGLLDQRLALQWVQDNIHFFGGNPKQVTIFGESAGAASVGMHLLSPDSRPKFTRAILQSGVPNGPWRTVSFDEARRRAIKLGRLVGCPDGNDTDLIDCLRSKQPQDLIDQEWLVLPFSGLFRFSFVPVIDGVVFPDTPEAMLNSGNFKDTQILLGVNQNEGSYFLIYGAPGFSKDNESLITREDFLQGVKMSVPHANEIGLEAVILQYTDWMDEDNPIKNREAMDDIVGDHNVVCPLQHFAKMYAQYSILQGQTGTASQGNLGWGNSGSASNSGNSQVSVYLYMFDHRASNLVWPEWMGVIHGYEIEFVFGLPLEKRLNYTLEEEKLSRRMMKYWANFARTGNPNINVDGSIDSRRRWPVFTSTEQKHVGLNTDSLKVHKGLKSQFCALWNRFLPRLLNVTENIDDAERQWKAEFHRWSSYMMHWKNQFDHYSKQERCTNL
- Test summary: Inhibition of electric eel AChE at 100 uM using acetylthiocholine iodide as substrate preincubated for 10 mins followed by substrate addition and measured for 10 mins by Ellman's method relative to control
- Applied conditions: time 20.0 min
A collection of compounds and their measured inhibition
Write it as a number; the unit % goes unstated.

Study these solved cases before continuing.
COc1ccc(N2CCN(CCC(=O)Nc3ccc4c(c3)oc(=O)n4C)CC2)cc1    29
Cn1c(=O)oc2cc(NC(=O)CCCCN3CCN(Cc4ccccc4)CC3)ccc21    82
Cn1c(=O)sc2cc(NC(=O)CCN3CCN(c4ccc(F)cc4)CC3)ccc21    37
Cn1c(=O)sc2cc(NC(=O)CCCN3CCN(Cc4ccccc4)CC3)ccc21    93
Cn1c(=O)sc2cc(NC(=O)CCN3CCN(c4ccccc4)CC3)ccc21    34

// inhibition lookup, compound = `COc1ccc(CN2CCN(CCC(=O)Nc3ccc4c(c3)oc(=O)n4C)CC2)cc1` , result: 38

Recorded inhibition (compound `CN(CCC(=O)Nc1ccc2c(c1)sc(=O)n2C)Cc1ccccc1` ): 63

get_value(item= `Cn1c(=O)oc2cc(NC(=O)CCCN3CCN(Cc4ccccc4)CC3)ccc21` , readout=inhibition) returns 94

In plain terms, `Cn1c(=O)oc2cc(NC(=O)CCN3CCN(c4ccc(F)cc4)CC3)ccc21` has a documented inhibition of 35

Measured inhibition of `Cn1c(=O)oc2cc(NC(=O)CCN3CCC(Cc4ccccc4)CC3)ccc21` : 64

Record summary for `Cn1c(=O)oc2cc(NC(=O)CCN3CCC(c4ccccc4)CC3)ccc21` : reported inhibition = 25

Reported inhibition ( `Cn1c(=O)sc2cc(NC(=O)CCCCN3CCC(c4ccccc4)CC3)ccc21` ) = 30

For this compound ( `Cc1ccc(N2CCN(CCC(=O)Nc3ccc4c(c3)sc(=O)n4C)CC2)cc1` ), measured inhibition is 35

Briefly, inhibition measured for `Cn1c(=O)sc2cc(C(=O)CCN3CCN(Cc4ccccc4)CC3)ccc21` : 99

Looking up `Cn1c(=O)sc2cc(NC(=O)CCCN3CCC(c4ccccc4)CC3)ccc21` , I see its inhibition listed as 32

# inhibition (compound: `Cn1c(=O)sc2cc(NC(=O)CCN3CCN(c4ccc(C(F)(F)F)cc4)CC3)ccc21` ) is 36

Lab note: measured inhibition of `Cn1c(=O)oc2cc(NC(=O)CCN3CCN(Cc4ccc(C(F)(F)F)cc4)CC3)ccc21` was 35

----------
- Measurement target: Acetylcholinesterase (Homo sapiens, UniProt P22303)
- Sequence (P22303 whole entry): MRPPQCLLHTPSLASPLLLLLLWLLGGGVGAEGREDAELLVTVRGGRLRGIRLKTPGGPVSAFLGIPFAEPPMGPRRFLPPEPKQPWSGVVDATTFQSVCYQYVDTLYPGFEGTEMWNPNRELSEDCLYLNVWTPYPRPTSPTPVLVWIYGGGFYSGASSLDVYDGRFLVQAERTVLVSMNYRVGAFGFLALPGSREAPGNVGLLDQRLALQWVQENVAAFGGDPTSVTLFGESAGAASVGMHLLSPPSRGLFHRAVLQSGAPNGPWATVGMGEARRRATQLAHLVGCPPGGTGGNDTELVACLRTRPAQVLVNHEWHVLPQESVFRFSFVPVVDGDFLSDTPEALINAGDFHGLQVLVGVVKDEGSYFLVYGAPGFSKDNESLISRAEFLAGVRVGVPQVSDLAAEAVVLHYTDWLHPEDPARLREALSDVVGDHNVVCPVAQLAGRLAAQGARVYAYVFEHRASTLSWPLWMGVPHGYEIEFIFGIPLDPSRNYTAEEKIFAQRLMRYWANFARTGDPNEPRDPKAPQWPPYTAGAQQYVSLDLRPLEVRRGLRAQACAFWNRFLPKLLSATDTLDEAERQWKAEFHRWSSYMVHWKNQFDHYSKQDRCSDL
- Test summary: Inhibition of recombinant human AChE expressed in HEK293 cells using acetylthiocholine iodide as substrate preincubated for 10 mins followed by substrate addition and measured for 10 mins by Ellman's method
Readout type: IC50 (nM)
Write the value in nM as a bare number.

Entry `Cn1c(=O)sc2cc(C(=O)CCN3CCN(Cc4ccccc4)CC3)ccc21` , IC50 reported as 460

----------
- Measurement target: Cholinesterase (Equus caballus, UniProt P81908)
- Sequence (P81908 whole entry): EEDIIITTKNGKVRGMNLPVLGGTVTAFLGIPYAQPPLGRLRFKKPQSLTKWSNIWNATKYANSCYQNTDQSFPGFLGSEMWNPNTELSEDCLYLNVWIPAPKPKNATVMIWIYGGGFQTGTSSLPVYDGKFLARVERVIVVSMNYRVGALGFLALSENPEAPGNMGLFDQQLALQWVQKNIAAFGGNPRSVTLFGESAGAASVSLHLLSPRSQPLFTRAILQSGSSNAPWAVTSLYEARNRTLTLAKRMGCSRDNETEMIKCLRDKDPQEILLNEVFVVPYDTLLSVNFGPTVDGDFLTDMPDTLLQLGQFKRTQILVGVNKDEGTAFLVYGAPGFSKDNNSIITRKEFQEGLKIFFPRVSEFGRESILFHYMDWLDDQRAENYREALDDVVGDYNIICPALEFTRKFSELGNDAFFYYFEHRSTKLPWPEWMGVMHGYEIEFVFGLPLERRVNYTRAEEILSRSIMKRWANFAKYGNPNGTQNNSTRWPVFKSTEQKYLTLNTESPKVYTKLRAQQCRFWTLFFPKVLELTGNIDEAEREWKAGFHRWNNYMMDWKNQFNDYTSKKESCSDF
- Test summary: Inhibition of equine serum BChE using butyrylthiocholine iodide as substrate preincubated for 10 mins followed by substrate addition and measured for 10 mins by Ellman's method
pIC50: −log10 of the molar value.
Please note: class 1 applies when pIC50 is 5 or greater, and class 0 applies otherwise.

Cn1c(=O)sc2cc(NC(=O)CCN3CCN(Cc4ccc(F)cc4)CC3)ccc21    class 0
Cn1c(=O)sc2cc(NC(=O)CCN3CCC(Cc4ccccc4)CC3)ccc21    class 0
Cn1c(=O)sc2cc(C(=O)CCN3CCC(c4ccccc4)CC3)ccc21    class 0

Given `Cn1c(=O)sc2cc(NC(=O)CCCCN3CCC(c4ccccc4)CC3)ccc21` , state whether its pIC50 is at least 5.
class 1

Answer whether pIC50 of `CN(CCC(=O)Nc1ccc2c(c1)sc(=O)n2C)Cc1ccccc1` is greater than or equal to 5.
class 0

----------
- Measurement target: Acetylcholinesterase (Electrophorus electricus)
- Test summary: Inhibition of electric eel AChE at 100 uM using acetylthiocholine iodide as substrate preincubated for 10 mins followed by substrate addition and measured for 10 mins by Ellman's method relative to control
- Applied conditions: time 20.0 min
Class assignment keyed on inhibition, ranges low end: < 40%; middle: ≥ 40% and < 70%; high end: ≥ 70%

Cn1c(=O)sc2cc(NC(=O)CCCCN3CCN(Cc4ccccc4)CC3)ccc21    high end
CN(CCC(=O)Nc1ccc2c(c1)oc(=O)n2C)Cc1ccccc1    middle
Cc1ccc(N2CCN(CCC(=O)Nc3ccc4c(c3)oc(=O)n4C)CC2)cc1    low end
Cn1c(=O)oc2cc(C(=O)CCN3CCN(Cc4ccccc4)CC3)ccc21    high end
Cn1c(=O)sc2cc(NC(=O)CCN3CCN(Cc4ccc(F)cc4)CC3)ccc21    high end

Class for `O=C(CCN1CCN(Cc2ccccc2)CC1)Nc1ccc2nc(-c3ccccc3)sc2c1` ?
low end

Which class is correct for the following molecule? `Cn1c(=O)oc2cc(NC(=O)CCN3CCN(c4ccccc4)CC3)ccc21`
low end

----------
Values of pIC50 reported for Acetylcholinesterase (Electrophorus electricus) appear below.
pIC50 here is simply -log10 of the concentration when that concentration is written in mol/L.

Solved entries (count: 4):
Cn1c(=O)sc2cc(NC(=O)CCN3CCN(Cc4ccccc4)CC3)ccc21    5.63
Cn1c(=O)oc2cc(NC(=O)CCCN3CCN(Cc4ccccc4)CC3)ccc21    5.22
Cn1c(=O)oc2cc(NC(=O)CCCCN3CCN(Cc4ccccc4)CC3)ccc21    4.51
Cn1c(=O)sc2cc(C(=O)CCN3CCN(Cc4ccccc4)CC3)ccc21    6.47

Next, consider the following compound.
Sample `Cn1c(=O)oc2cc(NC(=O)CCN3CCN(Cc4ccc(F)cc4)CC3)ccc21` , system: Acetylcholinesterase (Electrophorus electricus). Its pIC50 is 4.79

----------
- Measurement target: UniProt:P81908
- Test summary: Inhibition of equine serum BChE at 100 uM using butyrylthiocholine iodide as substrate preincubated for 10 mins followed by substrate addition and measured for 10 mins by Ellman's method relative to control
- Applied conditions: time 20.0 min
Readout type: inhibition

Cn1c(=O)oc2cc(NC(=O)CCN3CCN(c4ccc(Cl)cc4)CC3)ccc21    < 10%
COc1ccc(CN2CCN(CCC(=O)Nc3ccc4c(c3)sc(=O)n4C)CC2)cc1    < 10%
Cn1c(=O)oc2cc(NC(=O)CCN3CCN(Cc4ccc(C(F)(F)F)cc4)CC3)ccc21    < 10%
COc1ccc(N2CCN(CCC(=O)Nc3ccc4c(c3)sc(=O)n4C)CC2)cc1    < 10%
Cn1c(=O)sc2cc(C(=O)CCN3CCN(Cc4ccccc4)CC3)ccc21    < 10%

Please turn your attention to the following entry.
The compound `Cn1c(=O)sc2cc(NC(=O)CCN3CCN(c4ccccc4)CC3)ccc21` showed inhibition equal to < 10%

----------
A collection of compounds and their measured Activity
- Test summary: Antioxidant activity assessed as trolox equivalent of AAPH radical scavenging activity at 10 uM measured every min for 90 mins by ORAC-FL assay
- Format: functional
# output: bare number, implied unit equiv

// known answers, use as guide
Cn1c(=O)oc2cc(NC(=O)CCN3CCC(Cc4ccccc4)CC3)ccc21    3.87
Cn1c(=O)sc2cc(NC(=O)CCN3CCN(Cc4ccc(Cl)cc4)CC3)ccc21    4.01
O=C(CCN1CCN(Cc2ccccc2)CC1)Nc1ccc2nc(-c3ccccc3)oc2c1    2.68

Now for another entry.
Item: `Cn1c(=O)oc2cc(NC(=O)CCN3CCN(c4ccc(F)cc4)CC3)ccc21` | Activity: 3.85

----------
Listed here are compounds together with their documented inhibition.
- Measurement target: UniProt O42275
- Test summary: Inhibition of electric eel AChE at 100 uM using acetylthiocholine iodide as substrate preincubated for 10 mins followed by substrate addition and measured for 10 mins by Ellman's method relative to control
- Applied conditions: time 20.0 min
Express the result in % but write the number alone.

COc1ccc(CN2CCN(CCC(=O)Nc3ccc4c(c3)sc(=O)n4C)CC2)cc1    39
Cn1c(=O)sc2cc(C(=O)CCN3CCC(c4ccccc4)CC3)ccc21    81
COc1ccc(N2CCN(CCC(=O)Nc3ccc4c(c3)sc(=O)n4C)CC2)cc1    31
Cn1c(=O)sc2cc(NC(=O)CCN3CCC(Cc4ccccc4)CC3)ccc21    62
Cn1c(=O)sc2cc(NC(=O)CCN3CCN(Cc4ccc(Cl)cc4)CC3)ccc21    37
Cn1c(=O)sc2cc(NC(=O)CCN3CCN(c4ccc(Cl)cc4)CC3)ccc21    32
Cn1c(=O)oc2cc(NC(=O)CCN3CCN(c4ccc(Cl)cc4)CC3)ccc21    30
Cn1c(=O)sc2cc(NC(=O)CCN3CCC(c4ccccc4)CC3)ccc21    60
Cn1c(=O)oc2cc(NC(=O)CCN3CCN(c4ccc(C(F)(F)F)cc4)CC3)ccc21    35
Cn1c(=O)sc2cc(NC(=O)CCN3CCN(Cc4ccccc4)CC3)ccc21    92

Noted for `Cn1c(=O)oc2cc(NC(=O)CCN3CCN(Cc4ccc(F)cc4)CC3)ccc21` : its inhibition reads 66

// inhibition lookup, compound = `Cn1c(=O)oc2cc(NC(=O)CCN3CCN(Cc4ccc(Cl)cc4)CC3)ccc21` , result: 40

Per the records, this compound ( `Cn1c(=O)oc2cc(NC(=O)CCN3CCN(Cc4ccccc4)CC3)ccc21` ) has inhibition equal to 81

compound `Cn1c(=O)sc2cc(NC(=O)CCN3CCN(Cc4ccc(C(F)(F)F)cc4)CC3)ccc21` , inhibition observed: 35
